# credit: patent US20160346249A1

Experimental Details: Rat developmental toxicity study with toxicokinetics
Assay type: in vivo
Test Conditions: female, Crl:CD(SD)IGS BR, rat, in vivo, po, 3 mg/kg/day, pregnant rats, 3 mg/kg/day, GD 17
Assay Readout: Cmax (ng/mL)
Answers are plain numbers, in ng/mL.

# lookup: Cmax of Clc1ccc([C@]23CNC[C@H]2C3)cc1Cl 397

====

Experimental Details: 13-week mouse toxicity and toxicokinetic study
Test Conditions: female, Crl:CD-1(ICR) BR, in vivo, po, 30 mg/kg/day, Tmax
Assay Readout: Tmax (h)
Numbers only, in h.

For the compound shown here, Clc1ccc([C@]23CNC[C@H]2C3)cc1Cl , give the reported Tmax. 2

====

Experimental Details: 13-week rat toxicity and toxicokinetic study
Format: in vivo
Test Conditions: female, Crl:CD(SD)IGS BR, rat, in vivo, po, 10 mg/kg/day, females, 10 mg/kg/day, Day 87
Assay Readout: Tmax (h)
Give bare numbers, in h.

// returns reported Tmax for input Clc1ccc([C@]23CNC[C@H]2C3)cc1Cl [amitifadine] 1

====

Experimental Details: Single rising oral dose (10-150 mg IR) safety, tolerance and pharmacokinetics in healthy male volunteers
Format: in vivo, human
Test Conditions: human, plasma, oral, 50 mg, individual subject; read-out: t1/2 (converted)
Assay Readout: half-life (h)
Answers are plain numbers, in h.

I'd like to know its half-life. The compound in question is Clc1ccc([C@]23CNC[C@H]2C3)cc1Cl 3.25

====

Experimental Details: 2-week dog toxicity and toxicokinetic study
Format: in vivo
Test Conditions: male, beagle, in vivo, po, 20 mg/kg/day, males, 20 mg/kg/day, Day 13
Assay Readout: Cmax (ng/mL)
Numbers only, in ng/mL.

Return reported Cmax; argument: Clc1ccc([C@]23CNC[C@H]2C3)cc1Cl 9280

====

Experimental Details: 12-month dog toxicity and toxicokinetic study
Assay type: in vivo
Test Conditions: male, beagle, dog, plasma, po, 15 mg/kg/day, males, 20 (15) mg/kg/day, Day 358; read-out: AUC0-24
Assay Readout: AUC(0-t)
// unit must come after the numeric part

Reported AUC(0-t) for Clc1ccc([C@]23CNC[C@H]2C3)cc1Cl : what is it? 18.1 µg·h/mL

====

Experimental Details: Single dose 300 mg / 450 mg pharmacokinetic, safety and tolerability study in healthy male and female subjects
Test Conditions: both, human, plasma, po, 300 mg
Assay Readout: concentration at 2 h (ng/mL)
One number for each entry, in ng/mL.

Given O=C1NCC2(c3ccc(Cl)c(Cl)c3)CC12 (stereo not shown) , state its recorded concentration at 2 h. 900

====

Experimental Details: 13-week mouse toxicity and toxicokinetic study
Test Conditions: both sexes, Crl:CD-1(ICR) BR, in vivo, po
Assay Readout: MTD at 13 weeks (mg/kg/day)
Numbers only, in mg/kg/day.

So what's the measured MTD at 13 weeks for this one? Clc1ccc([C@]23CNC[C@H]2C3)cc1Cl [amitifadine] 100

====

Experimental Details: Single dose 300 mg / 450 mg pharmacokinetic, safety and tolerability study in healthy male and female subjects
Test Conditions: male, human, plasma, po, 450 mg, t½ (Harmonic mean), single oral 450 mg DOV 21,947 HCl IR, N = 5
For each entry below, report its half-life value.
Numbers only, in min.

Give half-life for all molecules that follow.
1. O=C1NCC2(c3ccc(Cl)c(Cl)c3)CC12 (centres unmarked)
2. Clc1ccc([C@]23CNC[C@H]2C3)cc1Cl

1. 996
2. 240

====

Experimental Details: 2-week dog toxicity and toxicokinetic study
Format: in vivo
Test Conditions: female, beagle, in vivo, po, 20 mg/kg/day, females, 20 mg/kg/day, Day 0
Assay Readout: Cmax (ng/mL)
One number for each entry, in ng/mL.

Request the reported Cmax associated with Clc1ccc([C@]23CNC[C@H]2C3)cc1Cl 9950

====

Experimental Details: 2-week dog toxicity and toxicokinetic study
Type: in vivo
Test Conditions: female, beagle, in vivo, po, 5 mg/kg/day, females, 5 mg/kg/day, Day 0
Assay Readout: Tmax (h)
Numbers only, in h.

Item Clc1ccc([C@]23CNC[C@H]2C3)cc1Cl has what recorded Tmax? 2

====

Experimental Details: Single dose 300 mg / 450 mg pharmacokinetic, safety and tolerability study in healthy male and female subjects
Test Conditions: female, human, plasma, po, 450 mg
Assay Readout: MRT inf (h)
One number for each entry, in h.

What value of measured MRT inf is listed for Clc1ccc([C@]23CNC[C@H]2C3)cc1Cl [amitifadine] ? 6.42

====

Experimental Details: 2-week rat toxicology and toxicokinetic study
Assay type: in vivo
Test Conditions: female, Crl:CD (SD)IGS BR, rat, in vivo, po, 40 mg/kg/day, females, 40 mg/kg/day, Day 0; read-out: AUC0-24
Assay Readout: AUC(0-t) (µg·h/mL)
Give bare numbers, in µg·h/mL.

Bench note: what AUC(0-t) did Clc1ccc([C@]23CNC[C@H]2C3)cc1Cl show? 50.6

====

Experimental Details: 13-week mouse toxicity and toxicokinetic study
Test Conditions: male, Crl:CD-1(ICR) BR, in vivo, po, 10 mg/kg/day, AUC0-24
Assay Readout: AUC(0-t) (ng·h/mL)
Answers are plain numbers, in ng·h/mL.

Would you kindly share the measured AUC(0-t) for Clc1ccc([C@]23CNC[C@H]2C3)cc1Cl ? 2050

====

Experimental Details: 26-week rat toxicity and toxicokinetic study
Type: in vivo
Test Conditions: male, Crl:CD(SD)IGS BR, rat, in vivo, po, 25 mg/kg/day, males, 25 mg/kg/day, Day 0
Protocol: A portion of the animals from each group was maintained for an additional 4-week post-treatment recovery period. For toxicology assessment, groups comprised thirty animals of each gender. Assessments included clinical observations, body weight, and food consumption measures noted periodically during the study. […] Ophthalmic examinations were performed during Weeks 1 and 13. […]
Assay Readout: Tmax (h)
Numbers only, in h.

I have this compound here, Clc1ccc([C@]23CNC[C@H]2C3)cc1Cl [amitifadine] , and I need its recorded Tmax. 1

====

Experimental Details: 13-week rat toxicity and toxicokinetic study
Type: in vivo
Test Conditions: male, Crl:CD(SD)IGS BR, rat, in vivo, po, 10 mg/kg/day, males, 10 mg/kg/day, Day 87
Assay Readout: Tmax (h)
Numbers only, in h.

Request the reported Tmax associated with Clc1ccc([C@]23CNC[C@H]2C3)cc1Cl 1

====

Experimental Details: Single dose 300 mg / 450 mg pharmacokinetic, safety and tolerability study in healthy male and female subjects
Test Conditions: male, human, plasma, po, 450 mg
Assay Readout: concentration at 0.5 h (ng/mL)
One number for each entry, in ng/mL.

So what's the measured concentration at 0.5 h for this one? O=C1NCC2(c3ccc(Cl)c(Cl)c3)CC12 (stereo not shown) [EB-10101] 107

====

Experimental Details: 12-month dog toxicity and toxicokinetic study
Format: in vivo
Test Conditions: female, beagle, dog, plasma, po, 6 mg/kg/day, females, 6 mg/kg/day, Day 358
Assay Readout: Cmax
Write the numeric value and append its unit.

Give its Cmax value. Item: Clc1ccc([C@]23CNC[C@H]2C3)cc1Cl 2420 ng/mL

====

Experimental Details: Rat developmental toxicity study with toxicokinetics
Assay type: in vivo
Test Conditions: female, Crl:CD(SD)IGS BR, rat, in vivo, po; pregnant rats, 3 mg/kg/day, GD 6
Assay Readout: Tmax (h)
One number for each entry, in h.

# lookup: Tmax of Clc1ccc([C@]23CNC[C@H]2C3)cc1Cl 2

====

Exercise: state measured Tmax for each of the molecules provided.
Experimental Details: Single dose 300 mg / 450 mg pharmacokinetic, safety and tolerability study in healthy male and female subjects
Test Conditions: male, human, plasma, po, 300 mg
Numbers only, in h.

Molecule	Tmax (h)
O=C1NCC2(c3ccc(Cl)c(Cl)c3)CC12 (centres unmarked) [EB-10101]	6.4

Kindly review the next molecule as well.
What value of Tmax has been recorded for this entry: Clc1ccc([C@]23CNC[C@H]2C3)cc1Cl [amitifadine] 1.6

====

Experimental Details: in vivo
Test Conditions: female, Crl:CD-1(ICR) BR, mouse, po, 30 mg/kg/day, Tmax
Assay Readout: Tmax (h)
Numbers only, in h.

Given Clc1ccc([C@]23CNC[C@H]2C3)cc1Cl , state its recorded Tmax. 2

====

Experimental Details: 2-week rat toxicology and toxicokinetic study
Assay type: in vivo
Test Conditions: male, Crl:CD (SD)IGS BR, rat, in vivo, po, 20 mg/kg/day, males, 20 mg/kg/day, Day 0; read-out: AUC0-24
Assay Readout: AUC(0-t) (ng·h/mL)
Give bare numbers, in ng·h/mL.

Field request: AUC(0-t) | item: Clc1ccc([C@]23CNC[C@H]2C3)cc1Cl [amitifadine] 17400

====

Experimental Details: 12-month dog toxicity and toxicokinetic study
Assay type: in vivo
Test Conditions: female, beagle, dog, plasma, po, 2 mg/kg/day, females, 2 mg/kg/day, Day 358; read-out: AUC0-24
Assay Readout: AUC(0-t)
# number then unit; no other words

Please look up its AUC(0-t): Clc1ccc([C@]23CNC[C@H]2C3)cc1Cl [amitifadine] 3990 ng·h/mL
